# runDescription: chemical genetic growth profiling, strain panel (AID 1159580);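 further: tested at 20 µM; growth read once vehicle control cultures reached saturation at 30 °C; 1 = growth at the plate median or of vehicle wells; lower values mean less growth of the strain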
# experimentalContext: S. cerevisiae deletion strains, growth OD, locus YER167W, strain BCK2, stronger effect = lower value
About 2,000 (36%) of roughly 5,500 compounds were called active. Roughly 18% stayed inconclusive and do not appear here. Some of the results follow.
recordedMetric: normalized growth
Answer with the value's number alone.

compound	recordedMetric	observedResult
COc1c2ccoc2nc2c(OC)c(OCC(O)C(C)(C)O)ccc12 (centres undefined)	normalized growth	0.972
NC(N)=NCCC[C@@H](NC(=O)[C@@H](N)Cc1ccc(O)cc1)C(=O)O	normalized growth	1.01
CN(C)N=Nc1nc[nH]c1C(N)=O	normalized growth	1.02
CO[C@]12C[C@@H](COC(=O)c3cncc(Br)c3)CN(C)[C@@H]1Cc1cn(C)c3cccc2c13	normalized growth	1
CC(CCC(=O)O)[C@H]1CCC2C3C(C[C@H](O)[C@@]21C)[C@@]1(C)CC[C@@H](O)C[C@H]1C[C@H]3O (some centres undefined)	normalized growth	1.02
CC(=O)Nc1ccccc1	normalized growth	0.999

normalized growth lookup needed for COC(=O)CCC(C)[C@H]1CCC2C3C(C[C@H](O)[C@@]21C)[C@@]1(C)CC[C@@H](O)C[C@H]1C[C@H]3O (some centres undefined) , thanks.
1

normalized growth lookup needed for O=c1[nH]cnc2[nH]ncc12 , thanks.
0.999

###

# runDescription: chemical genetic growth profiling, strain panel (AID 1159580);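 further: tested at 20 µM; growth read once vehicle control cultures reached saturation at 30 °C; 1 = growth at the plate median or of vehicle wells; lower values mean less growth of the strain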
# experimentalContext: S. cerevisiae deletion strains, growth OD, locus YLR371W, strain rom2
Among all 5,500 compounds or so, about 2,000 (36%) were called active. Inconclusive results (about 18%) are left out. Cut-off read from the data, not from the text of the source: active = normalized growth mostly below about 0.91 (no sharp cut-off); inconclusive = no clear call, values can overlap the other calls; inactive = mostly above about 0.92. Some of the results follow.
Valid outcomes are listed here; reply with one: 1.0 for active, 0.0 for inactive

Example entries and their recorded answers appear below.
> print(dat)
                                    molecule  class
 1      O=c1cc(-c2ccccc2)oc2cc(O)c(O)c(O)c12    1.0
 2                              NNCCc1ccccc1    0.0
 3  NS(=O)(=O)c1cc2c(cc1Cl)NC(C1CC3C=CC1C3)NS2(=O)=O (stereo not drawn)    0.0
 4         O=c1cc(-c2ccccc2)oc2cc(O)cc(O)c12    0.0
 5  N[C@@H]1[C@@H](O)[C@H](O)[C@@H](CO)O[C@H]1O    0.0
 6  COc1cc(S(C)=O)ccc1-c1nc2ncccc2[nH]1 (stereo not drawn)    0.0
 7  C=C1C2CC[C@@]3(C)[C@H](c4ccoc4)OC(=O)C[C@]13O[C@H]1CC(=O)C(C)(C)C(CC(=O)OC)[C@@]21C (stereo partly drawn)    0.0
 8                    c1ccc2c(c1)CN1CCCC1=N2    0.0
 9   CCCC(C(=O)OCCN(CC)CC)(c1ccccc1)c1ccccc1    0.0
10                                   NC(N)=O    0.0

Shifting focus to the molecule that follows.
Tell me the recorded outcome of this test for CN(C)CCC(c1ccc(Br)cc1)c1ccccn1 (stereo not drawn) .
0.0

###

Property: normalized growth; scope: individual molecules
# runDescription: chemical genetic growth profiling, strain panel (AID 1159580);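 further: tested at 20 µM; growth read once vehicle control cultures reached saturation at 30 °C; 1 = growth at the plate median or of vehicle wells; lower values mean less growth of the strain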
# experimentalContext: S. cerevisiae deletion strains, growth OD, locus YER015W, strain faa2, stronger effect = lower value
About 2,000 (36%) of roughly 5,500 compounds were called active. Inconclusive results (about 18%) are left out. Some of the results follow.
Answer with the value's number alone.

Known normalized growth results, listed for orientation:
molecule	normalized growth
COc1cc([C@H]2Oc3cc([C@H]4Oc5cc(O)cc(O)c5C(=O)[C@@H]4O)ccc3O[C@@H]2CO)ccc1O	1
c1ccc2nc(N3CCNCC3)ccc2c1	0.995
O=c1cc(-c2ccccc2)oc2c(O)c(O)ccc12	0.99
CSc1ccc2c(c1)N(CCC1CCCCN1C)c1ccccc1S2 (stereo not drawn)	0.842
Clc1ccc2c(c1)C(N1CCNCC1)=Nc1ccccc1O2	0.983

normalized growth lookup needed for CN(CCC(N)CC(=O)N[C@H]1C=CC(n2ccc(N)nc2=O)O[C@@H]1C(=O)O)C(=N)N (stereo partly drawn) , thanks.
0.917

normalized growth lookup needed for CN(C)C(=O)Nc1ccc(Cl)c(Cl)c1 , thanks.
0.968

normalized growth lookup needed for CCN(CC)C(C)CN1c2ccccc2Sc2ccccc21 (stereo not drawn) , thanks.
0.937

normalized growth lookup needed for CN[C@@H]1[C@H](OC2[C@H](O[C@H]3[C@H](O)[C@@H](O)[C@H](N=C(N)N)[C@@H](O)[C@@H]3N=C(N)N)O[C@@H](C)[C@]2(O)C=O)O[C@@H](CO)[C@H](O)[C@H]1O (stereo partly drawn) , thanks.
1

normalized growth lookup needed for CCCCCC1C(=O)CCC1CC(=O)O (stereo not drawn) , thanks.
0.983

normalized growth lookup needed for COc1ccc(C(=O)N2CCCC2=O)cc1 , thanks.
0.979

normalized growth lookup needed for O=c1cc(-c2ccccc2)oc2cc(O)c(O)cc12 , thanks.
0.946

normalized growth lookup needed for NC(Cc1ccc(F)cc1)C(=O)O (stereo not drawn) , thanks.
1.02

normalized growth lookup needed for COc1cc(OC)c(OC)cc1C=O , thanks.
0.997

normalized growth lookup needed for CCCCCC1C(=O)CCC1CC(=O)OC (stereo not drawn) , thanks.
0.98

normalized growth lookup needed for N[C@H](Cc1cc(I)c(Oc2ccc(O)c(I)c2)c(I)c1)C(=O)O , thanks.
1

normalized growth lookup needed for COc1ccc(C(=O)CC(=O)c2ccc(C(C)(C)C)cc2)cc1 , thanks.
0.997

normalized growth lookup needed for O=c1cc(-c2ccc(O)cc2)oc2cc(O)cc(O)c12 , thanks.
0.986

normalized growth lookup needed for Cc1cc(C)cc(OCC2CNC(=O)O2)c1 (stereo not drawn) , thanks.
0.982

normalized growth lookup needed for CC1CCC2(OC1)OC1CC3C4CCC5C[C@@H](O)CCC5(C)C4=CCC3(C)C1[C@@H]2C (stereo partly drawn) , thanks.
1
